Hey, just so you know, these numbers are from patent US11773132B2.

log10 EC50 values by entry
Molecular target: hSTING R232 (Homo sapiens, UniProt Q86WV6, H232R)
Construct: host or cells: 293T-Dual hSTING R232 cells
Sequence (Q86WV6 whole entry H232R): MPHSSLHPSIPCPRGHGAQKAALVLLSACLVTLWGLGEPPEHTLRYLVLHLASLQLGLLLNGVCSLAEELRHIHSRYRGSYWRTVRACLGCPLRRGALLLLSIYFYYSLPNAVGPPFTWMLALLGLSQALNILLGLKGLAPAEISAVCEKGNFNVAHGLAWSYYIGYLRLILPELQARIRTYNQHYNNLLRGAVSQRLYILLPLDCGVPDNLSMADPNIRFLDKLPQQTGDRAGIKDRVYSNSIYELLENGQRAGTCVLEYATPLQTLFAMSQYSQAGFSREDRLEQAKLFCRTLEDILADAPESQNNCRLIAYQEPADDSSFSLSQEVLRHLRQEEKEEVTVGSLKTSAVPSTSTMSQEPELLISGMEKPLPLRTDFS
Assay: 293T-Dual hSTING R232 cells, IRF activation (Quanti-Blue)
Type: cell-based
Conditions: 293T-Dual hSTING R232 cell line, 24 h, OD 620 nm
Note the log scale: values are log10 of EC50 expressed in nM.

For orientation, consider the following solved cases.
>  <compound>
BP1(=O)OCC2O[C@@H](n3cnc4c(N)ncnc43)[C@H](F)[C@@H]2OP(=O)(O)OC[C@H]2O[C@@H](n3cnc4c(=O)[nH]c(N)nc43)[C@H](F)[C@@H]2O1 (stereo partly shown) [Compound F2]

>  <result>
3.08

$$$$
>  <compound>
[BH3-][P+]1(O)OCC2OC(n3cnc4c(N)ncnc43)C(OP(=O)(O)OCC3OC(n4cnc5c(N)ncnc54)C(F)C3O1)C2F (single isomer, unassigned) [Compound K1]

>  <result>
2.86

$$$$
>  <compound>
B[P@]1(=O)OC[C@H]2O[C@@H](n3cnc4c(N)ncnc43)[C@H](F)[C@@H]2OP(=O)(O)OC[C@H]2O[C@@H](n3cnc4c(N)ncnc43)[C@H](O1)C2F (stereo partly shown) [Compound I2]

>  <result>
3.73

$$$$

Measured on hSTING R232 (Homo sapiens, UniProt Q86WV6, H232R), BP1(=O)OCC2O[C@@H](n3cnc4c(N)ncnc43)[C@H](F)[C@@H]2OP(=O)(S)OC[C@H]2O[C@@H](n3cnc4c(=O)[nH]c(N)nc43)[C@H](F)[C@@H]2O1 (single isomer, unassigned) [Compound C3] has a documented log10 EC50 of 1.93

Short answer on hSTING R232 (Homo sapiens, UniProt Q86WV6, H232R) for BP1(=O)OC[C@H]2O[C@@H](n3cnc4c(=O)[nH]c(N)nc43)[C@H](F)[C@@H]2OP(=O)(O)OCC2O[C@@H](n3cnc4c(N)ncnc43)[C@H](F)[C@@H]2O1 (stereo partly shown) [Compound G1] , log10 EC50: 2.61

Reported hSTING R232 (Homo sapiens, UniProt Q86WV6, H232R) log10 EC50 for item BP1(=O)OC[C@H]2O[C@@H](n3cnc4c(N)ncnc43)[C@H](F)[C@@H]2OP(=O)(S)OC[C@H]2O[C@@H](n3cnc4c(N)ncnc43)[C@H](O1)C2F (stereo partly shown) [Mixtures of H1, H2, H3, and H4] was 4.53

log10 EC50 on hSTING R232 (Homo sapiens, UniProt Q86WV6, H232R) for BP1(=O)OCC2O[C@@H](n3cnc4c(N)ncnc43)[C@H](F)[C@@H]2OP(=O)(S)OC[C@H]2O[C@@H](n3cnc4c(=O)[nH]c(N)nc43)[C@H](F)[C@@H]2O1 (single isomer, unassigned) [Compound C2] is 2.36

====

Molecular target: hSTING R232 (Homo sapiens, UniProt Q86WV6, H232R)
Construct: host or cells: 293T-Dual hSTING R232 cells
Test: 293T-Dual hSTING R232 cells, IRF activation (Quanti-Blue)
Format: cell-based
Conditions: 293T-Dual hSTING R232 cell line, 24 h, OD 620 nm
readout.label: pEC50
Scale note: pEC50 = -log10(concentration in M).

pEC50 recorded for this molecule, BP1(=O)OCC2O[C@@H](n3cnc4c(N)ncnc43)[C@H](F)[C@@H]2OP(=O)(S)OC[C@H]2O[C@@H](n3cnc4c(=O)[nH]c(N)nc43)[C@H](F)[C@@H]2O1 (single isomer, unassigned) [Compound C4] , is 6.47

The molecule BP1(=O)OC[C@H]2O[C@@H](n3cnc4c(=O)[nH]c(N)nc43)[C@H](F)[C@@H]2OP(=O)(S)OCC2O[C@@H](n3cnc4c(N)ncnc43)[C@H](F)[C@@H]2O1 (single isomer, unassigned) [Compound B2] showed pEC50 equal to 5.01

Item: BP1(=O)OCC2O[C@@H](n3cnc4c(N)ncnc43)[C@H](F)[C@@H]2OP(=O)(O)OC[C@H]2O[C@@H](n3cnc4c(=O)[nH]c(N)nc43)[C@H](F)[C@@H]2O1 (stereo partly drawn) [Compound F1] | pEC50: 6.20
